test system: HT29 subcutaneous xenograft tumor; test: Mouse HT29 subcutaneous xenograft tumor model (Example 165), with 30 mg/kg gemcitabine; assay type: in vivo; settings: 30 mg/kg orally once a day in combination with 30 mg/kg of gemcitabine ip once a week, day 20
Reported TGI values are given for each entry in this list.
Answer with a number only, understood to be in %.

# annotated cases, reported TGI shown
Exercise: Entry under review: "CC(C)Cc1cc(Nc2ncc(C#N)c(Nc3cccc(N=S(C)(C)=O)n3)n2)cc2c1CCN(C)C2" . Reported TGI?
Solution: 79

Exercise: Entry under review: "CN1CCc2c(cc(Nc3ncc(C#N)c(Nc4cccc(N=S(C)(C)=O)n4)n3)cc2C2CCOCC2)C1" . Reported TGI?
Solution: 87

Then there is this compound:
Exercise: Entry under review: "CN1CCc2c(cc(Nc3ncc(C#N)c(Nc4cccc(N=S(C)(C)=O)n4)n3)cc2C2CCC2)C1" . Reported TGI?
Solution: 88
